# tested system: canine IL-4RA (construct not given) (canine)
# assay explanation: SPR, IL-4RA immobilised, periplasmic Fab
Let's look at some binders and their measured koff.
Give just the number in s⁻¹; leave the unit off.

Example entries begin here.
FJ2246MP06H01 (Fab, V domains shown) VH: EVQLVESGGDLVKPGGSLRLSCVASGFTFRDYAMTWVRQAPGKGLQWVSLINGDASKTYYADAVKGRFTISRDNAKNTLYLQMNSLRAEDTAVYYCAVDRLTKTIRPQYYGLWVWGQGTLVTVSS VL: DIVMTQTPLSLSVSPGETASISCRSSQSLLYSIGYNYLDWYLQKPGQSPQGLIYLGSKRASGVPDRFSGSGSGTDFTLRISRVEANDTGVYYCMQGLQSPLTFGQGTKLEIKR = 0.000106
FJ2246MP06D11 (Fab, V domains shown) VH: EVQLVESGGDLVKPGGSLRLSCVASGFTFRDYAMTWVRQAPGKGLQWVSLINGSGGKTYYADAVKGRFTISRDNAKNTLYLQMNSLRAEDTAVYYCAVDRLTKTIRPQYYGLWVWGQGTLVTVSS VL: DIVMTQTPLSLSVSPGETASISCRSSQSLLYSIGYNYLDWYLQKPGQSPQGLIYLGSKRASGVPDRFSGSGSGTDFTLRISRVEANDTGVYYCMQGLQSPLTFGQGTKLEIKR = 0.000132

For the next question, use this binder.
Entry under review: FJ2246MP06E12 (Fab, V domains shown) VH: EVQLVESGGDLVKPGGSLRLSCVASGFTFRDYAMTWVRQAPGKGLQWVSLINGNGGKTYYADAVKGRFTISRDNAKNTLYLQMNSLRAEDTAVYYCAVDRLTKTIRPQYYGLWVWGQGTLVTVSS VL: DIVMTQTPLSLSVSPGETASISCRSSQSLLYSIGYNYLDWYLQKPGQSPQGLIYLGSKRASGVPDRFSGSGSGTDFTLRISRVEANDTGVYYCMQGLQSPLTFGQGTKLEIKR . Reported koff?
9.66e-05
